- System: RXF 631
- assayText: NCI tumour cell line growth inhibition, 48 h
Active and inactive are the calls of the source. No stated cut-off is given here; in the data, active = GI50 up to about 1.1 µM and inactive = higher.
What GI50 was measured for each of the following?

Here is how some compounds turned out for GI50.
CC(=O)OC1CC[C@@]2(C)C(CC[C@]3(C)C2CC=C2[C@@H]4C(C)[C@H](C)CCC4(C)CCC23C)[C@@]1(C)C(=O)O (some centres not stated) = 23.9 µM (inactive)
CCCCCC(=O)C(C)C1=Nc2nnc(CCCCCCCc3nnc4n3C(=O)C(C(C)C(=O)CCCCC)=N4)n2C1=O (configuration not stated) = > 100 µM (inactive)
O=C(CC1(O)C(=O)Nc2ccccc21)c1ccc(Cl)cc1Cl (configuration not stated) = > 100 µM (inactive)
COC(=O)c1nc(NC#N)nc(O)c1C = > 100 µM (inactive)
CCOC(=O)C1=C(C)N(NC(N)=O)C2(N)N(NC(N)=O)C(C)=C(C(=O)OCC)C12C#N (configuration not stated) = > 100 µM (inactive)
Cc1c2c(cc[n+]1C)O[B-](c1ccccc1)(c1ccccc1)O2 = 67.6 µM (inactive)

Batch request: GI50 for each of the following compounds.
1. CNC(=O)CN(CC(N)=O)C(N)=O
2. COc1ccc(/C=C/c2cc(OC)c(OC)c(OC)c2)cc1OC
3. CC(=O)NNc1nc(C)c(C(=O)NNC(=O)C(=O)Nc2c(C)cccc2C)s1
4. N#CC(C(=O)CCC(=O)Nc1ccc(Cl)c(Cl)c1)c1ccc(Cl)cc1 (configuration not stated)
5. CC1=C2C(=O)[C@H]3[C@@H](CC=C4C[C@@H](O)CC[C@@]43C)[C@@H]2CC[C@]12O[C@@H]1C[C@H](C)CN[C@H]1[C@H]2C
6. CC(=O)N1CCN(C=S)CC1

Key:
1: > 100 µM (inactive); 2: > 100 µM (inactive); 3: 26.2 µM (inactive); 4: 90.6 µM (inactive); 5: 23.2 µM (inactive); 6: > 100 µM (inactive)
